All figures here come from patent US20240255522A1.

- TARGET: HLA-DRB1*15:01 MHCII molecule (human)
- TEST_SUMMARY: saturation binding ELISA
pKd: −log10 of the molar value. Where no end group is shown, it is not given here.
PARAMETER_MEASURED: pKd

| BINDER | PARAMETER_MEASURED | MEASURED |
| --- | --- | --- |
| PVSKMRMATPLLMQA (also: biotinylated, position not given here) [biotinylated high affinity huCLIP] | pKd | 6.96 |
